Test: Extraction of organic standards from spiked JSC-1 rock with aqueous polysorbate 80 solution, GC-MS
Format: physicochemical
Conditions: polysorbate 80 2.5 g/L, without MeOH (pure water), ultrasonication 20 minutes
observation type: Extraction efficiency (%)
Field format: number, assumed %, no unit text.

CC(C)=CCC/C(C)=C/CC/C(C)=C/CC/C=C(\C)CC/C=C(\C)CCC=C(C)C = 9.11
CCCCCCCCCCCCCCCC = 0.73
c1ccc2c(c1)c1cccc3ccc4cccc2c4c31 [Benzo(e)pyrene] = 30.55
CC[C@H](/C=C/[C@@H](C)[C@H]1CC[C@H]2[C@@H]3CC=C4C[C@@H](O)CC[C@]4(C)[C@H]3CC[C@]12C)C(C)C = 10.88

Determine from records and report Extraction efficiency for "CCNc1nc(Cl)nc(NC(C)C)n1"
5.62

Provide only the value of recorded Extraction efficiency for CCC(C)CCCC(C)CCCC(C)CCCC(C)C (stereo not shown)
10.7

Hello, please tell me recorded Extraction efficiency for this one: "c1ccc2cc3ccccc3cc2c1"
22.86

* * *

Test: Extraction of organic standards from spiked JSC-1 rock with aqueous polysorbate 80 solution, GC-MS
Assay type: physicochemical
Conditions: polysorbate 80 1.5 g/L, without MeOH (pure water), ultrasonication 20 minutes
observation type: Extraction efficiency (%)
Only the number, expressed in %, is required.

c1ccc2c(c1)c1cccc3ccc4cccc2c4c31 [Benzo(e)pyrene] = 0
c1ccc2cc3ccccc3cc2c1 [Anthracene] = 0

Query compound follows.
Respond only with Extraction efficiency recorded for CC[C@H](/C=C/[C@@H](C)[C@H]1CC[C@H]2[C@@H]3CC=C4C[C@@H](O)CC[C@]4(C)[C@H]3CC[C@]12C)C(C)C [Stigmasterol]
0

* * *

Assay: Extraction of organic standards from spiked JSC-1 rock with aqueous polysorbate 80 solution, GC-MS
Type: physicochemical
Settings: polysorbate 80 1.5 g/L, with MeOH (water containing 20% methanol), ultrasonication 20 minutes
Reported Extraction efficiency by item:
Note: unit % is implicit; provide only the numeric part.

Study these solved cases before continuing.
CCNc1nc(Cl)nc(NC(C)C)n1 [Atrazine] = 7.35
CC(C)=CCC/C(C)=C/CC/C(C)=C/CC/C=C(\C)CC/C=C(\C)CCC=C(C)C [Squalene] = 6.11
c1ccc2c(c1)c1cccc3ccc4cccc2c4c31 [Benzo(e)pyrene] = 2.38
CCC(C)CCCC(C)CCCC(C)CCCC(C)C (stereo not shown) [Phytane] = 8.91
c1ccc2cc3ccccc3cc2c1 [Anthracene] = 0

Please give the documented Extraction efficiency of CC[C@H](/C=C/[C@@H](C)[C@H]1CC[C@H]2[C@@H]3CC=C4C[C@@H](O)CC[C@]4(C)[C@H]3CC[C@]12C)C(C)C [Stigmasterol]
0

Please give the documented Extraction efficiency of CCCCCCCCCCCCCCCC [Hexadecane]
4.21

* * *

As shown below, each of these molecules has a reported Extraction efficiency value.
Assay: Extraction of organic standards from spiked JSC-1 rock with aqueous polysorbate 80 solution, GC-MS
Assay type: physicochemical
Conditions: polysorbate 80 2.5 g/L, with MeOH (water containing 20% methanol), ultrasonication 20 minutes
State the answer as a number, implicitly in %.

Past entries and their recorded results:
CC(C)=CCC/C(C)=C/CC/C(C)=C/CC/C=C(\C)CC/C=C(\C)CCC=C(C)C = 0.58
CCCCCCCCCCCCCCCC = 0.54
CCNc1nc(Cl)nc(NC(C)C)n1 = 5.4
c1ccc2cc3ccccc3cc2c1 = 5.2
c1ccc2c(c1)c1cccc3ccc4cccc2c4c31 [Benzo(e)pyrene] = 20.33
CCC(C)CCCC(C)CCCC(C)CCCC(C)C (stereo not shown) = 0.93

Tell us which Extraction efficiency value is on record for "CC[C@H](/C=C/[C@@H](C)[C@H]1CC[C@H]2[C@@H]3CC=C4C[C@@H](O)CC[C@]4(C)[C@H]3CC[C@]12C)C(C)C"
3.06

* * *

Test: Extraction of organic standards from spiked JSC-1 rock with aqueous polysorbate 80 solution, GC-MS
Assay type: physicochemical
Conditions: polysorbate 80 1.5 g/L, without MeOH (pure water), ultrasonication 20 minutes
observation type: Extraction efficiency (%)
Entry rule: numbers only, all in %.

Respond only with Extraction efficiency recorded for "CCNc1nc(Cl)nc(NC(C)C)n1"
12.6

Recall and state the measured Extraction efficiency for "CCCCCCCCCCCCCCCC" .
14.2

State its Extraction efficiency for this compound: "CC(C)=CCC/C(C)=C/CC/C(C)=C/CC/C=C(\C)CC/C=C(\C)CCC=C(C)C"
19.71

State its Extraction efficiency for this compound: CCC(C)CCCC(C)CCCC(C)CCCC(C)C (stereo not shown)
29.08
